Values from the RNAGym collection of RNA variant scans (doi:10.7554/elife.80360)

B1: CPEB3 Ribozyme (parent)
chain: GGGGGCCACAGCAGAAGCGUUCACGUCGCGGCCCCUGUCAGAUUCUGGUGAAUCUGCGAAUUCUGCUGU

Variants of: B1
protocolDescription: self-cleavage, relative activity (ratio to wild type); higher = more cleavage; co-transcriptional
// bucketize self-cleavage: low-valued (below 0.3), mid-valued (0.3 to below 0.6), high-valued (0.6 or more)

INSERT INTO measurements (mutationannotation, labelclass) VALUES
  ('A13U A60C', 'mid-valued'),
  ('G5U G50A', 'mid-valued'),
  ('A16U C63U', 'high-valued'),
  ('G5U C6G', 'low-valued'),
  ('U21G G47U', 'high-valued'),
  ('G14C A60C', 'low-valued'),
  ('U44G C45U', 'high-valued'),
  ('G17C U44C', 'low-valued'),
  ('G30U G50U', 'mid-valued'),
  ('A40G A42C', 'high-valued'),
  ('C29A C33G', 'low-valued');
